- testSystem: cat T1R1/T1R3 receptor (Felis catus, UniProt E3UMS2)
- measurementDescription: cell-based
- assayConditions: hek293 cells
Each entry below lists one item and its recorded Max resp % of IMP value.
outcomeMeasure: Max resp % of IMP

[[record]]
compound = "Nc1ncnc2c1ncn2C1OC(COP(O)(O)=S)C(O)C1O (stereo not shown)"
testsystem = "cat T1R1/T1R3 receptor (Felis catus, UniProt E3UMS2)"
measured = "128.4 % of IMP"

[[record]]
compound = "Nc1nc2c(ncn2[C@H]2C[C@H](O)[C@@H](COP(O)(O)=S)O2)c(=O)[nH]1 [2′-Deoxyguanosine-5′-O-monophosphorothioate,sodiumsalt]"
testsystem = "cat T1R1/T1R3 receptor (Felis catus, UniProt E3UMS2)"
measured = "86.7 % of IMP"

[[record]]
compound = "Nc1nc2c(ncn2[C@H]2C[C@H](OP(=O)(O)O)[C@@H](COP(=O)(O)O)O2)c(=O)[nH]1 [2′-Deoxyguanosine-3′,5′-O-bisphosphate]"
testsystem = "cat T1R1/T1R3 receptor (Felis catus, UniProt E3UMS2)"
measured = "152.3 % of IMP"

[[record]]
compound = "O=C(Nc1ncnc2c1ncn2[C@@H]1O[C@H](COP(=O)(O)O)[C@@H](O)[C@H]1O)c1ccccc1"
testsystem = "cat T1R1/T1R3 receptor (Felis catus, UniProt E3UMS2)"
measured = "105.6 % of IMP"


---

The following compounds are shown together with reported Thres (mM) +Alanine (20 mM) values.
- testSystem: T1R1/T1R3 receptor (Felis catus)
- measurementDescription: cell-based
- Format: cell-based
- assayConditions: in the presence of 20 mM alanine
outcomeMeasure: Thres (mM) +Alanine (20 mM)

[[record]]
compound = "COC(=O)C(NC(=O)/C=C/c1cccs1)C(C)C (stereo not drawn)"
outcomemeasure = "Thres (mM) +Alanine (20 mM)"
displayunit = "mM"
measured = 10

[[record]]
compound = "CCC(CC)NC(=O)c1ccc(OC)c(OC)c1 [3,4-dimethoxy-N-(pentan-3-yl)benzamide]"
outcomemeasure = "Thres (mM) +Alanine (20 mM)"
displayunit = "mM"
measured = 0.3

[[record]]
compound = "CCCC(C)NC(=O)c1ccc(OC)c(C)c1 (stereo not drawn)"
outcomemeasure = "Thres (mM) +Alanine (20 mM)"
displayunit = "mM"
measured = 0.050


---

Recorded pEC50, one value per entry.
- testSystem: cat T1R1/T1R3 receptor (Felis catus)
- measurementDescription: cell-based
- assayConditions: in the presence of 20 mM alanine; read-out: EC50-with Ala
pEC50: −log10 of the molar value.
outcomeMeasure: pEC50

[[record]]
compound = "CNc1ccccc1C(=O)O[C@H]1C[C@H](n2cnc3c(N)ncnc32)O[C@@H]1COP(=O)(O)O"
testsystem = "cat T1R1/T1R3 receptor (Felis catus)"
outcomemeasure = "pEC50"
measured = 5.00

[[record]]
compound = "Nc1nc2c(ncn2[C@@H]2O[C@H](COP(=O)(O)O)[C@@H](O)[C@H]2O)c(=S)[nH]1 [6-thioguanosine-5′-O-monophosphate]"
testsystem = "cat T1R1/T1R3 receptor (Felis catus)"
outcomemeasure = "pEC50"
measured = 6.05

[[record]]
compound = "NC1NC(=O)c2ncn([C@H]3O[C@@H](COP(=O)(O)O)[C@H](O)[C@@H]3O)c2N1 (stereo partly drawn)"
testsystem = "cat T1R1/T1R3 receptor (Felis catus)"
outcomemeasure = "pEC50"
measured = 4.52

